- Target: human CB1 receptor (Homo sapiens)
- Construct: expressed in transfected cells; host or cells: SK-N-MC cells, stably transfected with pcDNA3 CB-1 (human); semi-purified membrane pellet
- Sequence (P21554 whole entry): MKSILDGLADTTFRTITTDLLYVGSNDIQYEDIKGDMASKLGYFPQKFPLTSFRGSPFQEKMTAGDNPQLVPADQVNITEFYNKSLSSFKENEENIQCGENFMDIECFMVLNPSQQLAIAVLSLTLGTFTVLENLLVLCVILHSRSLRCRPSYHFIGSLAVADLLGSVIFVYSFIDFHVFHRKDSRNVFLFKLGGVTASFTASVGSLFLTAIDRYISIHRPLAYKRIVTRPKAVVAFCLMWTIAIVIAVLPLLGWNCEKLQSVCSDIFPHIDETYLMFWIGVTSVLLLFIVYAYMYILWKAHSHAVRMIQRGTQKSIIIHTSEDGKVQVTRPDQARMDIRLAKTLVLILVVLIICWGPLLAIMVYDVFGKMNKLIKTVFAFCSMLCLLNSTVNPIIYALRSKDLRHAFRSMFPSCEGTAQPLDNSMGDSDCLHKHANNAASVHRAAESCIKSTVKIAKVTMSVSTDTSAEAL
- Measurement Protocol: biochemical
- Type: binding
Observation Type: IC50
Output should be the measured figure followed by the unit it is expressed in.

A selection of reference data follows.
>  <Compound>
CC(C)(C)OC(=O)NC1CCc2nn(C3CCCCC3)c(C(=O)NC3C4CC5CC(C4)CC3C5)c2C1 (stereo not drawn)

>  <IC50>
400 nM

$$$$
>  <Compound>
CC(NC(=O)c1nn(C2CCCCC2)c2c1CCCC2Cl)C12CC3CC(CC(C3)C1)C2 (stereo not drawn)

>  <IC50>
410 nM

$$$$

# ---- query compound ----
IC50 measured on COC(=O)[C@H]1CCc2c(c(C(=O)NC3C4CC5CC(C4)CC3C5)nn2C2CCCCC2)C1 (stereo partly drawn) = 400 nM
